- System: ACHN renal
- Assay protocol: NCI tumour cell line growth inhibition, 48 h
In this section, each of the molecules is paired with its reported TGI.
Give a bare numeral; the unit µM is implied.

N#Cc1c(N)nc(NCc2ccccc2)c(C#N)c1-c1ccccc1Cl: 62.7

Switching to the query record.
What value of TGI has been reported for the following molecule? CCC[CH2][Sn]1([CH2]CCC)[O]CC(CN2CCOCC2)[O]1 (configuration not stated)
9.61

====

- Test system: HCT-116 colon
- Assay protocol: NCI tumour cell line growth inhibition, 48 h; in the data active means GI50 below about 0.43 µM; inactive means the rest
Your response should consist of one outcome taken from active, inactive

Take a look at these entries with their results.
Cn1ccnc1C(=O)/C=C/c1ccc(CC(=O)Nc2ccc(F)cc2)cc1: inactive
O=C(O)c1cccc2cccc(C(=O)O)c12.[Hg]: inactive
O=C(O)c1c[nH]c2c(OCc3ccccc3)c3ccccc3c(O)c2c1=O: inactive

Give the logged outcome of this assay for the following compound: `COC1=CC(c2ccc[nH]2)=N/C1=C\c1[nH]c(C)c(C(C)=O)c1C`
active

Hi, do you know how `Cc1sc(NC2=NC(=O)/C(=C\c3ccccc3)S2)nc1-c1nc(NC2=NC(=O)/C(=C\c3ccccc3)S2)sc1C` came out in this test?
inactive

====

- Tested on: OVCAR-3 ovarian
- Assay protocol: NCI tumour cell line growth inhibition, 48 h
The following ranges of TGI define the classes used here: low bracket: < 7 µM; middle bracket: ≥ 7 µM and < 30 µM; high bracket: ≥ 30 µM

Illustrative cases are given below, each with its answer.
COc1cc2c(cc1OC)-c1c(oc3cc(OC4OC(CO)C(O)C(O)C4O)c(OC)cc3c1=O)C(O)O2 (stereo not given): high bracket
COC(=O)/C(=N\NC(=S)NN)C(C(=O)OC)C(=O)C(=O)Nc1cccc(C(F)(F)F)c1 (stereo not given): high bracket
Cc1cc(O)c(C=NC(=S)c2ccccc2)c(=O)o1: high bracket
Cc1cc(=O)oc2c(OS(C)(=O)=O)c(OS(C)(=O)=O)ccc12: high bracket
CC1=NN(c2cccc(Cl)c2)C(=N/c2nc3ccccc3s2)/C1=C\c1cccs1: high bracket

Continue with the next compound.
Please report the category associated with CC1OC(n2c3ccccc3c3c4c(c5c6ccccc6[nH]c5c32)C(=O)N(CCN2CCOCC2)C4=O)CC(O)C1O (stereo not given) , nothing else.
middle bracket

====

- System: MCF7 breast
- Assay protocol: NCI tumour cell line growth inhibition, 48 h
# TGI per record follows

O=C(NC1CCCCC1)NS(=O)(=O)c1ccc(-n2nc3c(c2-c2ccc(Cl)cc2)Cc2ccccc2-3)cc1: 45.7 µM

# lookup: TGI of `CN(C)C(=S)N/N=C(\C(=N/NC(=S)N(C)C)c1ccccn1)c1ccccn1`
> 48.7 µM

Using the record for `CC(=O)OC[C@@]1(C)[C@@H]2[C@@H]3[C@@]4(CO[C@]3(C)C(=O)[C@@]3(O)C[C@H](C)[C@H](OC(C)=O)[C@@H]3[C@H]4OC(C)=O)[C@H](OC(=O)c3ccccc3)C[C@@H]21` , report its TGI.
> 100 µM

Which value of TGI has been reported for Cc1cn([C@H]2C[C@@H]3[C@@H](COC(CCl)N3O)O2)c(=O)[nH]c1=O (some centres undefined) in the records?
> 100 µM

====

List of TGI values.
- Test system: SR leukemia
- Assay protocol: NCI tumour cell line growth inhibition, 48 h
Please reply with the bare figure in µM and do not write the unit itself.

Solved entries:
CN(C)CCNC1=CC(=O)c2nc3ccccc3c3ccnc1c23: 9.05
COc1cc(-n2cnc(-c3ccc(Cl)cc3)c2)cc(OC)c1OC: 62.2

Form entry - test system: SR leukemia; read-out: TGI; molecule: O=C1C(=c2cc3c(c4ccccc24)=NC24CCCCC2C(c2ccccc2)C=C(c2ccccc2)N34)C(=O)c2ccccc21 (stereo not given)
79.7

Lookup: TGI / SR leukemia / `COC1=CC(c2ccc[nH]2)=N/C1=C\c1[nH]c(C)c(C(C)=O)c1C`
0.379
